Tested on: MDA-MB-231 breast
Assay: NCI tumour cell line growth inhibition, 48 h
Kindly state TGI for each of the entries shown.

Entry under test: COc1cc([N+](=O)[O-])cc2c1NC(=O)C2(C)SC (centres undefined) . Its TGI was > 100 µM

Entry under test: CC(CCCCNC(=O)OC(C)(C)C)NC(=O)NC(C)CCCCNC(=O)OC(C)(C)C (centres undefined) . Its TGI was > 100 µM

Entry under test: COc1ccccc1CNC(=O)/C=C/c1ccc(O)c(O)c1 . Its TGI was > 100 µM

---
Entry under test: Clc1cccc(/C=c2\nc(-c3ccccc3)n3c2nc2ccccc23)c1 . Its TGI was > 100 µM
